# Tested on: cytokine release
# test protocol: Panel of standard cell-based in vitro assays evaluating cytokine release inhibition
# reported conditions: prodrugs compared to the steroid drugs (Examples 27 and 62, respectively)
measurement type: anti-inflammatory activity (cytokine release inhibition), assessment in words

| compound | target entity | reported value |
| --- | --- | --- |
| CN1CCN(CC(=O)[C@@]23O[C@H](C4CCCCC4)O[C@@H]2C[C@H]2[C@@H]4CCC5=CC(=O)C=C[C@]5(C)[C@@]4(F)[C@@H](O)C[C@@]23C)CC1 | cytokine release | potent |
| C[C@]12C=CC(=O)C=C1CC[C@H]1[C@@H]3C[C@H]4OC(c5cccnc5)O[C@@]4(C(=O)CO)[C@@]3(C)C[C@H](O)[C@@]12F (stereo partly shown) | cytokine release | potent |
| C[C@]12C=CC(=O)C=C1CC[C@H]1[C@@H]3C[C@H]4O[C@@H](C5CCCCC5)O[C@@]4(C(=O)CO)[C@@]3(C)C[C@H](O)[C@@]12F | cytokine release | potent |
| C[C@]12C=CC(=O)C=C1CC[C@H]1[C@@H]3C[C@H]4O[C@@H](C5CCCCC5)O[C@@]4(C(=O)CN4CC[N+](C)(Cc5ccc(C(O)CNCCCCCCOCCCCc6ccccc6)cc5OP(=O)(O)O)CC4)[C@@]3(C)C[C@H](O)[C@@]12F (stereo partly shown) | cytokine release | less active or inactive |

Looking up C[C@]12C=CC(=O)C=C1CC[C@@H]1[C@@H]2[C@@H](O)C[C@@]2(C)[C@H]1C[C@H]1OC(c3cccnc3)O[C@]12C(=O)CO (stereo partly shown) , I see its anti-inflammatory activity (cytokine release inhibition), assessment in words listed as potent

Looking up `C[C@]12C=CC(=O)C=C1CC[C@H]1[C@@H]3C[C@H]4O[C@@H](C5CCCCC5)O[C@@]4(C(=O)CN4CCC4)[C@@]3(C)C[C@H](O)[C@@]12F` , I see its anti-inflammatory activity (cytokine release inhibition), assessment in words listed as potent

Looking up C[C@]12C=CC(=O)C=C1CCC1C3C[C@H]4OC(c5ccc[n+](Cc6ccc(C(O)CNCCCCCCOCCCCc7ccccc7)cc6OP(=O)(O)O)c5)O[C@@]4(C(=O)CO)[C@@]3(C)C[C@H](O)[C@@]12F (stereo partly shown) , I see its anti-inflammatory activity (cytokine release inhibition), assessment in words listed as less active or inactive
